Listed next: entries and their corresponding EC50.
# System: SARS-CoV-2 B.1.1.7 lineage
# test: microbe, parasite or virus in culture
# Assay type: cell-based
# protocol.conditions: Severe acute respiratory syndrome coronavirus 2; Table C; SARS-CoV-2 B.1.1.7 in A549-dual_ACE2_TMPRSS2 cells, class symbols; read-out: A549-dual_ACE2_TMPRSS2 (EC50)
property: EC50

CN(C(=O)c1cnn(-c2ccccc2C(F)(F)F)c1)[C@@H](CC1CC1)C(=O)N1C[C@@]2(C[C@H]1C#N)Oc1cc(F)cc(F)c1NC2=O [Compound 79]
100 to 1000 nM
C[C@H](NC(=O)C(F)(F)F)C(=O)N(C)[C@@H](CC1CC1)C(=O)N1C[C@@]2(C[C@H]1C#N)Oc1ccccc1CNC2=O [Compound 163]
100 to 1000 nM
C[C@H](NC(=O)C(F)(F)F)C(=O)N(C)[C@@H](CC1CC1)C(=O)N1C[C@@]2(C[C@H]1C#N)Oc1ncccc1NC2=O [Compound 209]
100 to 1000 nM
CN(C(=O)C(O)C(C)(C)C)[C@@H](CC1CC1)C(=O)N1C[C@@]2(C[C@H]1C#N)Oc1cc(F)cc(F)c1NC2=O (some centres unmarked) [Compound 138]
100 to 1000 nM
CN(C(=O)[C@H](CC1CC1)NS(=O)(=O)c1ccc(F)cc1)[C@@H](CC1CC1)C(=O)N1C[C@@]2(C[C@H]1C#N)Oc1cccnc1NC2=O [Compound 197]
100 to 1000 nM
CN(C(=O)[C@H](CC1CC1)NC(=O)C(F)(F)F)[C@@H](CC1CC1)C(=O)N1C[C@@]2(C[C@H]1C#N)Oc1cc(F)cnc1NC2=O [Compound 67]
100 to 1000 nM
CCOC[C@H](NC(=O)C(F)(F)F)C(=O)N(C)[C@@H](CC1CC1)C(=O)N1C[C@@]2(C[C@H]1C#N)Oc1cccnc1NC2=O [Compound 220]
100 to 1000 nM
CN(C(=O)[C@H](CC1CC1)NC(=O)C(F)(F)F)[C@@H](CC1CC1)C(=O)N1C[C@@]2(C[C@H]1C#N)Oc1ccc(F)c(F)c1NC2=O [Compound 52]
< 100 nM
CC(C)C[C@H](NC(=O)C(F)(F)F)C(=O)N(C)[C@@H](CC(C)C)C(=O)N1C[C@@]2(C[C@H]1C#N)Oc1cc(F)cc(F)c1NC2=O [Compound 63]
100 to 1000 nM
C[C@H](NC(=O)C(F)(F)F)C(=O)N(C)[C@@H](CC1(C)CC1)C(=O)N1C[C@@]2(C[C@H]1C#N)Oc1cccnc1NC2=O [Compound 183]
100 to 1000 nM
CC(C)C[C@@H](C(=O)N1C[C@@]2(C[C@H]1C#N)Oc1cc(F)cc(F)c1NC2=O)N(C)C(=O)[C@H](CC(C)(C)F)NC(=O)C(F)(F)F [Compound 64]
100 to 1000 nM
CC(C)C[C@@H](C(=O)N1C[C@@]2(C[C@H]1C#N)Oc1ccc(F)cc1NC2=O)N(C)C(=O)[C@H](C)NC(=O)C(F)(F)F [Compound 14a]
100 to 1000 nM
COC1CNC(=O)[C@]12C[C@@H](C#N)N(C(=O)[C@H](CC1CC1)N(C)C(=O)[C@H](CC1CC1)NC(=O)C(F)(F)F)C2 (some centres unmarked) [Compound 225]
100 to 1000 nM
CN(C(=O)[C@H]1CCN(C(=O)C(F)(F)F)C1)[C@@H](CC1CC1)C(=O)N1C[C@@]2(C[C@H]1C#N)Oc1cc(F)cc(F)c1NC2=O [Compound 129]
100 to 1000 nM
CN(C(=O)[C@@H](CC1CC1)NC(=O)C(F)(F)F)[C@@H](CC1CC1)C(=O)N1C[C@@]2(C[C@H]1C#N)Oc1cccnc1NC2=O [Compound 172]
100 to 1000 nM
CN(C(=O)[C@H](CC1CC1)NC(=O)C(F)(F)F)[C@@H](CC1CC1)C(=O)N1C[C@@]2(C[C@H]1C#N)Oc1ccccc1CNC2=O [Compound 81]
< 100 nM
CN(C(=O)[C@@H](Cc1ccc(F)cc1)NC(=O)C(F)(F)F)[C@@H](CC1CC1)C(=O)N1C[C@@]2(C[C@H]1C#N)Oc1ncccc1NC2=O [Compound 205]
< 100 nM
CC(C)C[C@@H](C(=O)N1C[C@]2(C[C@H]1C#N)C(=O)Nc1cc(-c3ccccc3)nn12)N(C)C(=O)[C@H](C)NC(=O)C(F)(F)F [Compound 25]
100 to 1000 nM
CN(C(=O)[C@H](CC1CC1)NC(=O)C(F)(F)F)[C@@H](CC1CC1)C(=O)N1C[C@@]2(C[C@H]1C#N)Oc1cc(F)ccc1NC2=O [Compound 50]
< 100 nM
C[C@H](NC(=O)C(F)(F)C(F)(F)F)C(=O)N(C)[C@@H](CC1CC1)C(=O)N1C[C@@]2(C[C@H]1C#N)Oc1cccnc1NC2=O [Compound 170]
< 100 nM
C[C@@H](OC(C)(C)C)[C@H](NC(=O)C(F)(F)F)C(=O)N(C)[C@@H](CC1CC1)C(=O)N1C[C@@]2(C[C@H]1C#N)Oc1cc(F)cc(F)c1NC2=O [Compound 159]
< 100 nM
CN(C(=O)[C@H](CC(F)F)NC(=O)C(F)(F)F)[C@@H](CC1CC1)C(=O)N1C[C@@]2(C[C@H]1C#N)Oc1cc(F)cc(F)c1NC2=O [Compound 86]
< 100 nM
CN(C(=O)c1cc2c(F)cc(F)c(F)c2[nH]1)[C@@H](CC1CC1)C(=O)N1C[C@@]2(C[C@H]1C#N)Oc1cc(F)cc(F)c1NC2=O [Compound 74]
100 to 1000 nM

---

# Test system: SARS-CoV-2 B.1.1.7 lineage
# test: microbe, parasite or virus in culture
# Type: cell-based
# protocol.conditions: Severe acute respiratory syndrome coronavirus 2; Table C; SARS-CoV-2 B.1.1.7 in A549-dual_ACE2_TMPRSS2 cells, class symbols; read-out: A549-dual_ACE2_TMPRSS2 (EC50)
property: EC50

CN(C(=O)[C@H](CC1CC1)NC(=O)C(F)(F)C(F)(F)F)[C@@H](CC1CC1)C(=O)N1C[C@@]2(C[C@H]1C#N)Oc1ccccc1CNC2=O
< 100 nM
C[C@@H](NC(=O)C(F)(F)F)C(=O)N(C)[C@@H](CC1CC1)C(=O)N1C[C@@]2(C[C@H]1C#N)Oc1cc(F)cc(F)c1NC2=O
< 100 nM
CN(C(=O)C(C)(C)NC(=O)C(F)(F)F)[C@@H](CC1CC1)C(=O)N1C[C@@]2(C[C@H]1C#N)Oc1cc(F)cc(F)c1NC2=O
< 100 nM
CC(C)C[C@@H](C(=O)N1C[C@@]2(C[C@H]1C#N)N=C(c1ccccc1)NC2=O)N(C)C(=O)c1cc2c(F)cc(F)cc2[nH]1
100 to 1000 nM
C[C@H](NC(=O)C(F)(F)F)C(=O)N(C)[C@@H](CC1CC1)C(=O)N1C[C@]2(C[C@H]1C#N)C(=O)NCC2Oc1ccccc1 (stereo partly drawn)
100 to 1000 nM
CN(C(=O)[C@H](CC1CC1)NC(=O)C(F)(F)F)[C@@H](CC(C)(C)F)C(=O)N1C[C@@]2(CC1C#N)Oc1cc(F)cc(F)c1NC2=O (stereo partly drawn)
100 to 1000 nM

---

# study.target: UniProt:P0DTD1
# test: biochemical
# protocol.conditions: Table A, class symbols, read-out: SARS-Cov-2 (IC50)
pIC50: −log10 of the molar value.
Reported pIC50 values for the following compounds.
property: pIC50

C[C@H](NC(=O)C(F)(F)F)C(=O)N(C)[C@@H](CC1CC1)C(=O)N1C[C@]2(C[C@H]1C#N)C(=O)NCC2Oc1ccccc1 (stereo partly drawn) [Compound 104]
6.70 to 7.70
CN(C(=O)[C@H](CC1CC1)NC(=O)C(F)(F)F)[C@@H](CC1CC1)C(=O)N1C[C@@]2(C[C@H]1C#N)Oc1cc(C#N)cc(F)c1NC2=O [Example 34]
> 7.70
C[C@H](NC(=O)C(F)(F)F)C(=O)N(C)[C@@H](CC1CC1)C(=O)N1C[C@@]2(C[C@H]1C#N)Oc1ccccc1CNC2=O [Compound 163]
> 7.70
CN(C(=O)[C@H](CC1CC1)NC(=O)C(F)(F)F)[C@@H](CC(C)(C)C)C(=O)N1C[C@@]2(C[C@H]1C#N)Oc1ccccc1CNC2=O [Compound 164]
> 7.70
COC1CNC(=O)[C@]12C[C@@H](C#N)N(C(=O)[C@H](CC1CC1)N(C)C(=O)[C@H](CC1CC1)NC(=O)C(F)(F)F)C2 (stereo partly drawn) [Compound 225]
6.70 to 7.70
CC(C)C[C@@H](C(=O)N1C[C@]2(CCCNC2=O)C[C@H]1C#N)N(C)C(=O)[C@H](C)NC(=O)C(F)(F)F [Compound 11]
6.70 to 7.70
